All values here come from patent US10961200B2.

- assay system: Human LDHA (Homo sapiens (Human))
- assay notes: human LDHA primary biochemical assay (resazurin/diaphorase coupled, fluorescence)
- run parameters: read-out: Inhibitory activity IC50
property: IC50

// worked examples, IC50 included
# compound, IC50
records = [
    ("O=C(O)c1csc(-n2cc(Cc3ccc(CO)cc3)c(-c3cccc(-c4ccccc4)c3)n2)n1 [Compound 200]", "1000 to 57000 nM"),
    ("NS(=O)(=O)c1ccc(Cc2c(-c3ccccc3)nn(-c3nc(C(=O)O)cs3)c2C2CO2)cc1 (stereo not drawn) [Compound 178]", "1000 to 57000 nM"),
]

// below: IC50 requested for another compound
stdin: Look up IC50 of Cc1noc(C)c1-c1cc(-c2nn(-c3nc(C(=O)O)cs3)c(CC3CC3)c2Cc2ccc(S(N)(=O)=O)cc2F)ccc1F [Compound 215] and report it.
stdout: < 100 nM
